biological target: MtInhA:NADH binary complex (Mycobacterium tuberculosis, UniProt P9WGR1); construct: made in house; test: biochemical; type: binding; details: 15 °C
Sequence (P9WGR1 whole entry, looked up, one chain of several): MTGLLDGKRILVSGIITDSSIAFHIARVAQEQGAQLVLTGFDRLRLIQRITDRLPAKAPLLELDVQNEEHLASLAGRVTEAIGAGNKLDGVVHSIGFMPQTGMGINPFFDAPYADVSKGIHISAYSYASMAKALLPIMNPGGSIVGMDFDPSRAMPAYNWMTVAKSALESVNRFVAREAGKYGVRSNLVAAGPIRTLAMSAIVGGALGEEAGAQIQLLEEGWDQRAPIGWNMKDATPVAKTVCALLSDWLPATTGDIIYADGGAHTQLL
ENDPOINT_LABEL: Kd (nM)
Give the number; nM is assumed, so skip it.

Item Cc1ccccc1OCc1nc(-c2ccc(NC(=O)c3cccs3)cc2)no1 has what recorded Kd?
900
